target: T1, human SIRPα variant 1 (human, UniProt P78324 31-504); assay: CELISA, CHO-K1 transfectants; average of two experiments
T1 construct: full length ORF on transfected CHO-K1 or HEK293 cells; entry includes the signal peptide; also called hSIRPαV1; SIRPαV1
T1 sequence (P78324 31-504 limits assumed, change not shown): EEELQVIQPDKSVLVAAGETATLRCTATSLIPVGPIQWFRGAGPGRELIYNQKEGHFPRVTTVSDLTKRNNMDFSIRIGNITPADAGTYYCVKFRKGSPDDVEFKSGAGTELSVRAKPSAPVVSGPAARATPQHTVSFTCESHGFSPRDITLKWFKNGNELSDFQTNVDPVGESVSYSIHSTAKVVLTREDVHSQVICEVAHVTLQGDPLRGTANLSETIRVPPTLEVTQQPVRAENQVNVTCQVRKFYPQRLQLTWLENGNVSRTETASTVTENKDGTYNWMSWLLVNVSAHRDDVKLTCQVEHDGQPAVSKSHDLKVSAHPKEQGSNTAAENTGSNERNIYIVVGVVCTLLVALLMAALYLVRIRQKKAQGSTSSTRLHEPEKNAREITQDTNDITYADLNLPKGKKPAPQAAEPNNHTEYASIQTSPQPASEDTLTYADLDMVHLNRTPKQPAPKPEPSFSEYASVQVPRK
Please note: EC50 exactly at 1000 pM is false. Only values below 1000 pM get true.

Consider the following illustrative entries.
hSIRPα.50A.H4L4 (antibody, human IgG4 S228P, kappa, V domains shown, human IgG4 S228P, kappa; also called hSIRPα.50H4L4) VH: EVQLQQSGAELVKPGASVKVSCKASGFTFTNYYIHWVRQRPGQGLEWMGWIYPGNVNTKYNEKFKAKATITADKSTSTAYMELSSLTSEDTAVYYCARPTIIATDFDVWGQGTTVTVSS VL: DIQMTQSPSSLSASVGDRVTITCKASQGVGTAVGWYQKKPGKVPKLLIYWASTRHTGVPDRFSGSGSGTDFTLTINGLQPEDVATYYCQQYSTYPFTFGGGTKLEIKR : false
hSIRPα.50A (antibody, V domains shown, light chain constant domain not tied; also called mouse hSIRPα.50A; hSIRPα.50A.mIgG1) VH: QVQLQQSGPELVKPGASVRISCKASGFTFTNYYIHWVKQRPGQGLEWIGWIYPGNVNTKYNEKFKAKATLTADKSSTTAYMQLSSLASEDSAVYFCARPTIIATDFDVWGAGTTVTVSS VL: DIVMTQSHKFMSTSVGDRVNITCKASQGVGTAVGWYQQKPGQSPRLLIYWASTRHTGVPDRFTGSGSGTDFSLAISNVQSEDLADYFCQQYSTYPFTFGGGTNLEIK : false
hSIRPα.50A.H3L2 (antibody, human IgG4 S228P, kappa, V domains shown, human IgG4 S228P, kappa; also called hSIRPα.50H3L2) VH: EVQLVQSGAEVVKPGASVMISCKASGFTFTNYYIHWVRQRPGQGLEWIGWIYPGNVNTKYNEKFKARVIMTADKSTSTVYMQLSSLTSEDTAVYYCARPTIIATDFDVWGQGTLVTVSS VL: DIVMTQSPSSLSASVGDRVTITCKASQGVGTAVGWYQQKPGKAPKLLIYWASTRHTGVPDRFSGSGSGTDFTLTISNLQPEDFADYYCQQYSTYPFTFGGGTKVEIKR : false
hSIRPα.50A.H5L1 (antibody, human IgG4 S228P, kappa, V domains shown, human IgG4 S228P, kappa; also called hSIRPα.50H5L1) VH: EVQLVQSGAEVVKPGASVKVSCKASGFTFTNYYIHWVRQAPEQGLEWIGWIYPGNVNTKYNEKFKARVTMTADKSTSTAYMELSSLRSDDMAVYYCARPTIIATDFDVWGQGTTVTVSS VL: DIVLTQSPSFLSASVGDRVTITCKASQGVGTAVGWYQQKPGKAPKLLIYWASTRHTGVPDRFSGSGSGTEFTLTISSLQPEDFAAYYCQQYSTYPFTFGGGTKLEIKR : true
hSIRPα.50A.H1L5 (antibody, human IgG4 S228P, kappa, V domains shown, human IgG4 S228P, kappa; also called hSIRPα.50H1L5) VH: EVQLQQSGAEVVKPGASVKVSCKASGFTFTNYYIHWVRQAPGQGLEWIGWIYPGNVNTKYNEKFKARVTITADKSTSTAYMDLSSLRSEDTAVYYCARPTIIATDFDVWGQGTTVTVSS VL: DIVLTQSPSFLSASVGDRVTITCKASQGVGTAVGWYQQKPGKSPKLLIYWASTRHTGVPDRFSGSGSGTEFTLTISNLQPEDFAAYYCQQYSTYPFTFGGGTKLEIKR : true
hSIRPα.50A.H4L2 (antibody, human IgG4 S228P, kappa, V domains shown, human IgG4 S228P, kappa; also called hSIRPα.50H4L2) VH: EVQLQQSGAELVKPGASVKVSCKASGFTFTNYYIHWVRQRPGQGLEWMGWIYPGNVNTKYNEKFKAKATITADKSTSTAYMELSSLTSEDTAVYYCARPTIIATDFDVWGQGTTVTVSS VL: DIVMTQSPSSLSASVGDRVTITCKASQGVGTAVGWYQQKPGKAPKLLIYWASTRHTGVPDRFSGSGSGTDFTLTISNLQPEDFADYYCQQYSTYPFTFGGGTKVEIKR : true

Then this binder:
Does this binder meet the criterion EC50 < 1000 pM? hSIRPα.50A.H3L5 (antibody, human IgG4 S228P, kappa, V domains shown, human IgG4 S228P, kappa; also called hSIRPα.50H3L5) VH: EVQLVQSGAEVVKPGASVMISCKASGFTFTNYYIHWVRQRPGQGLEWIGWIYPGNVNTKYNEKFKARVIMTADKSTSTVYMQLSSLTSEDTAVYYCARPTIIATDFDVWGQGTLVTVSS VL: DIVLTQSPSFLSASVGDRVTITCKASQGVGTAVGWYQQKPGKSPKLLIYWASTRHTGVPDRFSGSGSGTEFTLTISNLQPEDFAAYYCQQYSTYPFTFGGGTKLEIKR
true
